- measured_on: vanilloid receptor (Rattus norvegicus)
- Construct: DRG nerve cells from the primary culture of 2 days were equilibrated; endogenous in cells; host or cells: primary cultured dorsal root ganglion neurons of neonatal SD rats
- Sequence (O35433 whole entry): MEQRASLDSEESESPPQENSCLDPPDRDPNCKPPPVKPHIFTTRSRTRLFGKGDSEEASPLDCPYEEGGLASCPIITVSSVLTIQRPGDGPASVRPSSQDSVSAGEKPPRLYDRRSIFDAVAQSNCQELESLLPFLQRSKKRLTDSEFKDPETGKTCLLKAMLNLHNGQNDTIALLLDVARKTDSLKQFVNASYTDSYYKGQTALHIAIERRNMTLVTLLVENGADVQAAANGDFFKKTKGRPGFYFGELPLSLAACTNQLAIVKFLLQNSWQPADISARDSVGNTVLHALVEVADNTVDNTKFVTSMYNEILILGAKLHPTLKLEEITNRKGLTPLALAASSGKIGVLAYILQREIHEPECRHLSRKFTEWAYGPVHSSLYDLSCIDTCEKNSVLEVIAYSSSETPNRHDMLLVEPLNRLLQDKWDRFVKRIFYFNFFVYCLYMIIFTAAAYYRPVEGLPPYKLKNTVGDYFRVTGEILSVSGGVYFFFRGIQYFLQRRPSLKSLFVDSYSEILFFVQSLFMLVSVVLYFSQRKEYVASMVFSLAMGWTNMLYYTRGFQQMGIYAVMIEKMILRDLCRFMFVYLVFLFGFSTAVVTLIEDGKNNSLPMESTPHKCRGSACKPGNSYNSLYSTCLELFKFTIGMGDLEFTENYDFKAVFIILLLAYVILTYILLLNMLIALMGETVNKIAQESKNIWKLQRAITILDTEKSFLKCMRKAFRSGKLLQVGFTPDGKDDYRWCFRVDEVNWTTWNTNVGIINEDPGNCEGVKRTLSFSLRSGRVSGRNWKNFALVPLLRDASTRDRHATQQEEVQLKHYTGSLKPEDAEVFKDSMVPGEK
- test_name: 45Ca influx test (calcium uptake) in primary cultured DRG neurons, antagonism of capsaicin
- Type: cell-based
- experimental_setup: neonatal SD rat DRG nerve cells; capsaicin 0.5 μM; 45Ca 10 μCi/ml; 10 mins room temperature; read-out: Antagonist Calcium Uptake Test (IC50)
Exercise: for every item that follows, state its recorded IC50.
Give bare numbers, in nM.

Observe how each entry below is paired with its result.
smiles_repr: C=Cc1cc([C@@H](C)NC(=O)Nc2ccc(C(C)(C)C)cc2)ccc1NS(C)(=O)=O
measured_on: vanilloid receptor (Rattus norvegicus)
IC50 (nM): 99
//
smiles_repr: C=Cc1cc([C@@H](C)NC(=O)/C=C/c2ccc(C(C)(C)C)cc2)cc(F)c1NS(C)(=O)=O
measured_on: vanilloid receptor (Rattus norvegicus)
IC50 (nM): 54
//
smiles_repr: C=Cc1cc(CNC(=O)NCc2ccc(C(C)(C)C)cc2)cc(C)c1NS(C)(=O)=O
measured_on: vanilloid receptor (Rattus norvegicus)
IC50 (nM): 310
//
smiles_repr: C=Cc1cc(CNC(=O)NCc2ccc(C(C)(C)C)cc2)c(Cl)cc1NS(C)(=O)=O
measured_on: vanilloid receptor (Rattus norvegicus)
IC50 (nM): 170
//
smiles_repr: C=Cc1cc([C@@H](C)NC(=O)/C=C/c2ccc(C(C)(C)C)cc2)ccc1NS(C)(=O)=O
measured_on: vanilloid receptor (Rattus norvegicus)
IC50 (nM): 50

Batch: IC50 for all items listed.
1. C=Cc1cc(CNC(=O)NCc2ccc(C(C)(C)C)cc2)ccc1NS(C)(=O)=O
2. C=Cc1cc([C@@H](C)NC(=O)NCc2ccc(C(C)(C)C)cc2)ccc1NS(C)(=O)=O
3. C=Cc1cc([C@@H](C)NC(=O)C#Cc2ccc(C(C)(C)C)cc2)ccc1NS(C)(=O)=O

## Result
[160, 82, 79]

* * *

Exercise: for every item that follows, state its recorded IC50.
- measured_on: vanilloid receptor (Rattus norvegicus)
- Construct: DRG nerve cells from the primary culture of 2 days were equilibrated; endogenous in cells
- test_name: 45Ca influx test (calcium uptake) in primary cultured DRG neurons, antagonism of capsaicin
- experimental_setup: neonatal SD rat DRG nerve cells; capsaicin 0.5 μM; 45Ca 10 μCi/ml; 10 mins room temperature; read-out: Antagonist Calcium Uptake Test (IC50)
One number for each entry, in µM.

Observe how each entry below is paired with its result.
compound: C=Cc1cc(CNC(=O)/C=C/c2ccc(C(C)(C)C)cc2)cc(Cl)c1NS(C)(=O)=O
measured_metric: IC50
measured_value: 0.16

compound: C=Cc1cc(CNC(=O)/C=C/c2ccc(C(C)(C)C)cc2NCCOC)cc(F)c1NS(C)(=O)=O
measured_metric: IC50
measured_value: 0.076

compound: C=Cc1cc([C@@H](C)NC(=O)C#Cc2ccc(C(C)(C)C)cc2)cc(F)c1NS(C)(=O)=O
measured_metric: IC50
measured_value: 0.15

compound: C#Cc1cc(CNC(=O)CCc2ccc(C(C)(C)C)cc2)cc(F)c1NS(C)(=O)=O
measured_metric: IC50
measured_value: 0.17

compound: C=Cc1cc([C@@H](C)NC(=O)NCc2ccc(C(C)(C)C)cc2)cc(F)c1NS(C)(=O)=O
measured_metric: IC50
measured_value: 0.039

compound: C=Cc1cc(CNC(=O)C(C)Cc2ccc(C(C)(C)C)cc2)cc(F)c1NS(C)(=O)=O (centres unmarked)
measured_metric: IC50
measured_value: 0.067

compound: C=Cc1cc(CNC(=O)NCc2ccc(C(C)(C)C)cc2)cc(Cl)c1NS(C)(=O)=O
measured_metric: IC50
measured_value: 0.13

compound: C=Cc1cc(CNC(=O)C#Cc2ccc(C(C)(C)C)cc2)cc(F)c1NS(C)(=O)=O
measured_metric: IC50
measured_value: 0.087

Batch: IC50 for all items listed.
1. C=Cc1cc(CNC(=O)/C=C/c2ccc(C(C)(C)C)cc2OC)cc(F)c1NS(C)(=O)=O
2. C=Cc1cc(CNC(=O)CCc2ccc(C(C)(C)C)cc2OC2CCOCC2)cc(F)c1NS(C)(=O)=O
3. C=Cc1cc(CNC(=O)NCc2ccc(C(C)(C)C)cc2)cc(F)c1NS(C)(=O)=O

## Result
1: 0.073; 2: 0.043; 3: 0.098
